- Experiment: Drug library screen, cell viability (CellTiter-Glo)
- Type: cell-based, human
- Measurement Context: human; HCT116 ARID1A-WT; 10 μM for 5 days; relative to cells treated with solvent (DMSO); read-out: Cell viability, WT
Structures can show the parent of a compound that is named as a salt.
Would you mind telling me the reported viability at 5 days, 10 μM of each entry?
Numbers only; they are read as %.

// recorded viability at 5 days, 10 μM for Cn1cnc2c(NCc3ccccc3)nc(NCCO)nc21 : 173

Reported viability at 5 days, 10 μM ( CS(=O)(=O)c1ccc(C(=O)Nc2ccc(Cl)c(-c3ccccn3)c2)c(Cl)c1 ) = 88.7

Entry NC(=O)c1ccccc1 [Benzamide] ; viability at 5 days, 10 μM = 188

The reported viability at 5 days, 10 μM of the compound CN(C)CCCN1c2ccccc2Sc2ccc(Cl)cc21 [chlorpromazine hydrochloride] was 7.83

Looking up O=S(=O)(c1cccc2cnccc12)N1CCCNCC1 , I found its viability at 5 days, 10 μM recorded as 155

====

Can you tell me viability at 5 days, 10 μM for the items I'm about to list?
- Experiment: Drug library screen, cell viability (CellTiter-Glo)
- Type: cell-based, human
- Measurement Context: human; HCT116 ARID1A-WT; 10 μM for 5 days; relative to cells treated with solvent (DMSO); read-out: Cell viability, WT
Answer format: numeric, % implied, no suffix.

For reference, reported viability at 5 days, 10 μM for CCN(CC)CCNC(=O)c1c(C)[nH]c(/C=C2\C(=O)Nc3ccc(F)cc32)c1C [sunitinib malate] stands at 3.23

Documented viability at 5 days, 10 μM of CC1(C)CCC(C)(C)c2cc(NC(=O)c3ccc(C(=O)O)cc3)ccc21 : 77.3

For this compound ( C#Cc1cccc(Nc2ncnc3cc(OCCOC)c(OCCOC)cc23)c1 ), measured viability at 5 days, 10 μM is 48.1

Lab note: measured viability at 5 days, 10 μM of NC(=O)c1cccc2cn(-c3ccc([C@@H]4CCCNC4)cc3)nc12 was 29.3

Briefly, viability at 5 days, 10 μM measured for CCCOc1ccccc1-c1nc2nn[nH]c2c(=O)[nH]1 : 93.5

Recorded viability at 5 days, 10 μM (compound Cc1c(C)c2c(c(C)c1O)CCC(C)(COc1ccc(CC3SC(=O)NC3=O)cc1)O2 (stereo not drawn) ): 101

====

- Tested on: ARID1A-KO HCT116 cells
- Experiment: Drug library screen, cell viability (CellTiter-Glo)
- Type: cell-based, human
- Measurement Context: HCT116 ARID1A-KO; 10 μM for 5 days; relative to cells treated with solvent (DMSO)
Numbered stars: 1 amine (or outer) side, 2 acyl side, 3 side chain; on linkers, the order of the positions; unused ones are H or OH. Bridge positions count the residues as written; N and C are the ends. Square brackets hold non-standard residues; d marks the D form. Peptide text beside a SMILES is read from it. I, II: the chains in the order shown. * marks the point of attachment. Actinocin(9to1) = Cc1c2oc3c(C)ccc(C(=O)[*:1])c3nc-2c(C(=O)[*:2])c(N)c1=O; NMeV = CN[C@H](C(=O)O)C(C)C; Cbz = O=C(OCc1ccccc1)*; Sar = CNCC(=O)O; CH2F = FC*
Measure Name: Cell viability, KO
Form: value (number only, do not type unit).

Field Cell viability, KO (entry CCCC[C@@H](C)/C=C(C)/C=C(\C)C(=O)NC1=C[C@@](O)(/C=C/C=C/C=C/C(=O)NC2=C(O)CCC2=O)[C@@H]2O[C@@H]2C1=O [Manumycin A] ) reads 52.57

For reference, reported Cell viability, KO for COC(=O)[C@H](Cc1ccc([N+](=O)[O-])cc1)NC(=O)c1cccc2ccccc12 [SB 328437] stands at 112.6489

# Cell viability, KO of O=C1C(Nc2ccccc2)=CC(=O)c2ncccc21 [LY 83583] = 4.788

The molecule identified as COc1cccc(-c2cc(=O)c3ccccc3o2)c1N [PD 98059] registered its Cell viability, KO at 111.8217

Notebook: C[n+]1ccc(-c2c3nc(c(-c4cc[n+](C)cc4)c4ccc([nH]4)c(-c4cc[n+](C)cc4)c4ccc([nH]4)c(-c4cc[n+](C)cc4)c4nc2C=C4)C=C3)cc1 [TMPyP4] , Cell viability, KO read as 32.37

Entry under test: C=C1C(=O)OC(CCCCCCCC)C1C(=O)O (stereo not shown) [C75] . Its Cell viability, KO was 93.63

Per the records, this molecule ( O=C(NCc1ccccc1)c1csc(Nc2ccncn2)n1 [Thiazovivin] ) has Cell viability, KO equal to 30.49

The molecule listed as CCCCCC#CCC#CCC#CCC#CCCCC(=O)O [ETYA] shows Cell viability, KO equal to 110.2846

// field: Cell viability, KO; key: O=c1cc(-c2cccc3c2Sc2ccccc2S3)oc(N2CCOCC2)c1 [ATM kinase inhibitor] ; value = 83.21

Value of measured Cell viability, KO for the entry OCCn1cc(-c2cnc3nnn(Cc4ccc5ncccc5c4)c3n2)cn1 [PF-04217903] : 93.9615

For reference, reported Cell viability, KO for O=C(NC(NC(=S)Nc1ccc(F)c([N+](=O)[O-])c1)C(Cl)(Cl)Cl)C(c1ccccc1)c1ccccc1 (stereo not shown) [ATM/ATR kinase inhibitor] stands at 76.77

Sure, the documented Cell viability, KO for O=C1Cc2c([nH]c3ccc(Br)cc23)-c2ncccc2N1 [1-Azakenpaullone] is 114.0704

Briefly, Cell viability, KO measured for N#C/C(=C/c1ccc(O)c(O)c1)C(=O)NCc1ccccc1 [AG490] : 114.4173

Kindly note the recorded Cell viability, KO for Cc1c[nH]c(/C=C2\C(=O)Nc3ccccc32)c1CCC(=O)O [SU5402] , which is 139.2404

Form: molecule = O=S(=O)(c1cccc2c(I)cccc12)N1CCCNCC1 [ML-7] ; Cell viability, KO = 78.88

Record CCN(CC)CCCCNc1ncc2cc(-c3cc(OC)cc(OC)c3)c(NC(=O)NC(C)(C)C)nc2n1 [PD173074] . Reported Cell viability, KO: 7.568

Form field Cell viability, KO, entry COc1ccc(Cn2ccc3ccc(C(=O)NO)cc32)cc1 [PCI-34051] : 72.3

The recorded Cell viability, KO for entry COc1cc2ncc(-c3ccccc3)nc2cc1OC [AG1296] equals 144.7899

Given item CN(C)CCCCC(=O)Nc1ccc(NC(=S)NC(=O)c2ccc(C(C)(C)C)cc2)cc1 [Tenovin-6] , the value recorded as its Cell viability, KO is 5.579

Entry CCCCOc1cc(CC2CNC(=O)N2)ccc1OC (stereo not shown) [Ro-20-1724] ; Cell viability, KO = 105.8008

Looking up Nc1[nH]nc2nnc(-c3c(-c4ccccc4)nn4ccccc34)cc12 [ERK inhibitor II] , I see its Cell viability, KO listed as 160.6702

What the record says about c1ccc2c(-c3cnn4cc(-c5ccc(N6CCNCC6)cc5)cnc34)ccnc2c1 [LDN193189] : Cell viability, KO is 2.712

According to the records, this molecule C=C1[C@@H](C)[C@H]2[C@H](Cc3ccccc3)NC(=O)[C@]23[C@H](OC(C)=O)/C=C/[C@@](C)(O)C(=O)[C@@H](C)C/C=C/[C@H]3[C@@H]1O [Cytochalasin D] displays Cell viability, KO of 59.86

The value of Cell viability, KO measured for the molecule CC(C)[C@H](CO)Nc1nc(Nc2cccc(Cl)c2)c2ncn(C(C)C)c2n1 [Purvalanol A] turned out to be 33.47

Cell viability, KO for COc1ccc(S(=O)(=O)N(CCO)c2ccccc2CN(C)C/C=C/c2ccc(Cl)cc2)cc1 [KN93] is 23.47

The molecule listed as Cc1c2oc3c(C)ccc(C(=O)N[C@@H]4C(=O)N[C@H](C(C)C)C(=O)N5CCC[C@H]5C(=O)N(C)CC(=O)N(C)[C@@H](C(C)C)C(=O)O[C@@H]4C)c3nc-2c(C(=O)N[C@@H]2C(=O)N[C@H](C(C)C)C(=O)N3CCC[C@H]3C(=O)N(C)CC(=O)N(C)[C@@H](C(C)C)C(=O)O[C@@H]2C)c(N)c1=O [Actinomycin D] (I: T[dV]P[Sar][NMeV] / II: T[dV]P[Sar][NMeV]; ester I:1-I:C, II:1-II:C; linker I:N-II:N via Actinocin(9to1)) shows Cell viability, KO equal to 6.531

// recorded Cell viability, KO for COC(=O)C[C@H](NC(=O)[C@H](C)NC(=O)[C@@H](NC(=O)OCc1ccccc1)C(C)C)C(=O)CF [Z-VAD-FMK] (Cbz-Val-Ala-Asp(OMe)-CH2F) : 128.7264

For record CC(C)(O)/C=C/C(=O)[C@](C)(O)[C@H]1[C@H](O)C[C@@]2(C)[C@@H]3CC=C4[C@@H](C=C(O)C(=O)C4(C)C)[C@]3(C)C(=O)C[C@]12C [Cucurbitacin I] the listed Cell viability, KO is 15.25
